pEC50 listing for selected compounds.
Biological target: P2Y purinoceptor 2 (Homo sapiens, UniProt P41231)
Sequence (P41231 whole entry): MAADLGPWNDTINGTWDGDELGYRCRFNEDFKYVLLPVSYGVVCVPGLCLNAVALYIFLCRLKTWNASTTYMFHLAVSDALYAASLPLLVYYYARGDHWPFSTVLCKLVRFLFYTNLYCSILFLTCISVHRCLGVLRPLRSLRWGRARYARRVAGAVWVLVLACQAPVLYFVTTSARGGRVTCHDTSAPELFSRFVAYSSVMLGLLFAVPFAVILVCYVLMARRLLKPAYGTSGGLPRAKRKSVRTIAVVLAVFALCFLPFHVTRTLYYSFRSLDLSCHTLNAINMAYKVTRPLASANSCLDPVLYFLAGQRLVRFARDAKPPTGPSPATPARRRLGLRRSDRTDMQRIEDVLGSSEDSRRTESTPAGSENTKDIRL
Test: Agonist activity at human P2Y2 receptor expressed in human 1321N1 cells assessed as [3H]inositol phosphate accumulation by scintillation proximity assay
pEC50: −log10 of the molar value.

{"Compound": "O=c1ccn([C@@H]2O[C@H](COP(=O)(O)OP(=O)(O)OP(=O)(O)OC[C@H]3O[C@@H](n4cc(I)c(=O)[nH]c4=O)[C@H](O)[C@@H]3O)[C@H]3OC(Cc4ccccc4)O[C@H]32)c(=O)[nH]1 (stereo partly drawn)", "Target desc": "P2Y purinoceptor 2 (Homo sapiens, UniProt P41231)", "pEC50": 5.00}
{"Compound": "O=c1ccn([C@@H]2O[C@H](COP(=O)(O)OP(=O)(O)OP(=O)(O)OP(=O)(O)OC[C@@H]3OC(O)[C@@H](O)[C@H]3O)[C@@H](O)[C@H]2O)c(=O)[nH]1 (stereo partly drawn)", "Target desc": "P2Y purinoceptor 2 (Homo sapiens, UniProt P41231)", "pEC50": 5.73}
{"Compound": "O=c1ccn([C@@H]2O[C@H](COP(=O)(O)OP(=O)(O)OP(=O)(O)OP(=O)(O)OP(=O)(O)O)[C@@H](O)[C@H]2O)c(=S)[nH]1", "Target desc": "P2Y purinoceptor 2 (Homo sapiens, UniProt P41231)", "pEC50": 6.24}

* * *

In this section we review reported pEC50 values for a set of compounds.
Target: P2Y purinoceptor 6 (Homo sapiens)
Sequence (Q15077 whole entry): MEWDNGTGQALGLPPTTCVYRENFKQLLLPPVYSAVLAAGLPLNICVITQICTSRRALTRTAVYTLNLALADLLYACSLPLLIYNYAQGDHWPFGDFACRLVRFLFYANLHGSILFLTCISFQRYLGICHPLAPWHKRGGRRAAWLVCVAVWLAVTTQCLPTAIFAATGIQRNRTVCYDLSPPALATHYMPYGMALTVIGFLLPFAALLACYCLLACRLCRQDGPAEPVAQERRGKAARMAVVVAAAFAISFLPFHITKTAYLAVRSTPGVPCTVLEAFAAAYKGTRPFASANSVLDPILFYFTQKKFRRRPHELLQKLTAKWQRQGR
Test: Agonist activity at human P2Y6 receptor expressed in human 1321N1 cells assessed as [3H]inositol phosphate accumulation by scintillation proximity assay
pEC50: −log10 of the molar value.
Assay metric: pEC50

{"Compound": "O=c1ccn([C@@H]2O[C@H](COP(=O)(O)OP(=O)(O)OP(=O)(O)OC[C@H]3O[C@@H](n4cc(I)c(=O)[nH]c4=O)[C@H](O)[C@@H]3O)[C@H]3OC(Cc4ccccc4)O[C@H]32)c(=O)[nH]1 (stereo partly specified)", "Reported relation": "=", "Reported": 5.26}
{"Compound": "O=c1ccn([C@@H]2O[C@H](COP(=O)(O)OP(=O)(O)C(F)(F)P(=O)(O)O)[C@@H](O)[C@H]2O)c(=S)[nH]1", "Reported relation": "=", "Reported": 5.29}
{"Compound": "O=c1ccn([C@@H]2O[C@H](COP(=O)(O)OP(=O)(O)OP(=O)(O)OP(=O)(O)OP(=O)(O)O)[C@@H](O)[C@H]2O)c(=S)[nH]1", "Reported relation": "=", "Reported": 5.13}
{"Compound": "NC(=O)N[C@@H]1[C@H](O)[C@@H](COP(=O)(O)OP(=O)(O)O)O[C@H]1n1ccc(=O)[nH]c1=O", "Reported relation": "=", "Reported": 5.33}
{"Compound": "O=c1[nH]c(=S)ccn1[C@@H]1O[C@H](COP(=O)(O)OP(=O)(O)OP(=O)(O)OP(=O)(O)OC[C@H]2O[C@@H](n3ccc(=S)[nH]c3=O)[C@H](O)[C@@H]2O)[C@@H](O)[C@H]1O", "Reported relation": "=", "Reported": 5.69}
{"Compound": "N#CCCOP(=O)(O)OP(=O)(O)OP(=O)(O)OP(=O)(O)OC[C@H]1O[C@@H](n2ccc(=O)[nH]c2=O)[C@H](O)[C@@H]1O", "Reported relation": "<", "Reported": 5.00}
